biological target: T1, human TGFβ1 (human, UniProt P01137 279-390); test: Biacore off-rate vs wt GC1008, 50 nM
T1 construct: also called TGFβ1 homodimer
T1 sequence (P01137 279-390 limits assumed): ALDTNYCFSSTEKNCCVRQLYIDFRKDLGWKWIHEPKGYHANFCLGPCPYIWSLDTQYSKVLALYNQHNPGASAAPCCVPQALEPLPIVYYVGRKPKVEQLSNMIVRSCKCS
In this section, each of the binders is paired with its reported kd var/kd wt.
Please give only the number in your answer, with no unit.

{"Binder": "S30E (antibody, V domains shown, GC1008 IgG4 variant) VH: QVQLVQSGAEVKKPGSSVKVSCKASGYTFESNVISWVRQAPGQGLEWMGGVIPIVDIANYAQRFKGRVTITADESTSTTYMELSSLRSEDTAVYYCASTLGLVLDAMDYWGQGTLVTVSS VL: ETVLTQSPGTLSLSPGERATLSCRASQSLGSSYLAWYQQKPGQAPRLLIYGASSRAPGIPDRFSGSGSGTDFTLTISRLEPEDFAVYYCQQYADSPITFGQGTRLEIK", "Property measured": "kd var/kd wt", "Measured": 1.2}

# evaluate next
Recorded kd var/kd wt (binder D56C (antibody, V domains shown, GC1008 IgG4 variant) VH: QVQLVQSGAEVKKPGSSVKVSCKASGYTFSSNVISWVRQAPGQGLEWMGGVIPIVCIANYAQRFKGRVTITADESTSTTYMELSSLRSEDTAVYYCASTLGLVLDAMDYWGQGTLVTVSS VL: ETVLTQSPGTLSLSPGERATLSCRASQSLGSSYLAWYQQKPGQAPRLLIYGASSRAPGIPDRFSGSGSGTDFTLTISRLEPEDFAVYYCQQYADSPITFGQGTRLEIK ): 1.1
